Recorded pre-steady-state target cleavage rate, one value per entry.
Tested on: EfPiwi piRISC loaded with piRNA #1 (26 nt)
protocol-details: pre-steady-state target cleavage rate (min^-1); auxiliary factor: 500 nM Ephydatia muelleri Gtsf1; guide: piRNA #1 5'p-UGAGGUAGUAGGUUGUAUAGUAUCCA; higher = faster piRNA-guided slicing of the target

sequence: GGAGACCUAACUAUACAACCUACUACUUCA
pre-steady-state target cleavage rate: 0.00438
//
sequence: GGAGACGAUCUAUACAACCUACUACCUCA
pre-steady-state target cleavage rate: 0.0198
//
sequence: GGAGACGAUACUAUACAAGCUACUACCACA
pre-steady-state target cleavage rate: 0.00387
//
sequence: GGAGACGAUACAAAACAACCUACUACCUCA
pre-steady-state target cleavage rate: 0.00359
//
sequence: GGAGACGAUACUAUACAAACCUACUACCUCA
pre-steady-state target cleavage rate: 0.00846
//
sequence: GGAGACGAUACUAUACAACUUACUACCUCA
pre-steady-state target cleavage rate: 0.0183
//
sequence: GGAGACCAUACUAUACAACCAACUACCUCA
pre-steady-state target cleavage rate: 0.00627

* * *

Recorded pre-steady-state target cleavage rate by entry
Tested on: MILI (PIWIL2) piRISC loaded with L1MC piRNA (26 nt);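 further: 1 nM active piRISC with 0.1 nM target library at 33 °C single turnover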
protocol-details: pre-steady-state target cleavage rate (min^-1); guide: L1MC piRNA 5'p-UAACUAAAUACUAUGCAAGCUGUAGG; higher = faster piRNA-guided slicing of the target
conditions: auxiliary factor: 500 nM mouse GTSF1

sequence: UCCUGGUACAGCUUGCAUAGUAGUUUAGUUA
pre-steady-state target cleavage rate: 0.217
//
sequence: UCCUGGAACAGCUUGCAUAGUAAAUAGUUA
pre-steady-state target cleavage rate: 0.153
//
sequence: UCCUCCUACAGCUUGCAUAGUAUUAGUUA
pre-steady-state target cleavage rate: 0.273
//
sequence: UCCUGCUACAGCUUGCAUAGUAUUAUCUAA
pre-steady-state target cleavage rate: 0.0551
//
sequence: UCCUGGAUGUGCUUGCAUAGUAUUUAUUUA
pre-steady-state target cleavage rate: 0.0305
//
sequence: UCCUGGAACAGCUUGCAUAGUAGUUAGUUA
pre-steady-state target cleavage rate: 0.138
//
sequence: UCCUGGAUGAGCUUGCAUAGUAUUUAGUUU [g2:g21:cont:t1U]
pre-steady-state target cleavage rate: 0.226
//
sequence: UCCUGGAUGUGCUUGCAUAGUAUUUAGUA
pre-steady-state target cleavage rate: 0.111
//
sequence: UCCUGGAUGUGCUUGGUUAGUAUUUAGUUA
pre-steady-state target cleavage rate: 0.0978
//
sequence: UCCUCCUACAGCUUGCAUAGUUAAUAGAAA
pre-steady-state target cleavage rate: 0.00946
//
sequence: UCCUGGAUGACCUUGCAUAGUAUUAAGUUA
pre-steady-state target cleavage rate: 0.141
//
sequence: UCCUGGAUGAGCUUGCAUAGUUAAUAGUUA
pre-steady-state target cleavage rate: 0.00524
//
sequence: UCCUGGAACAGCUAGCAUAGUUUUUAGUUA
pre-steady-state target cleavage rate: 0.0448

* * *

Test system: MILI (PIWIL2) piRISC loaded with L1MC piRNA (26 nt);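 further: 1 nM active piRISC with 0.1 nM target library at 33 °C single turnover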
protocol-details: pre-steady-state target cleavage rate (min^-1); guide: L1MC piRNA 5'p-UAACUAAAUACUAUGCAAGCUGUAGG; MIWI and MILI are mouse PIWI proteins and EfPiwi is from a freshwater sponge; tags in brackets are library labels; higher = faster piRNA-guided slicing of the target
conditions: auxiliary factor: none (no GTSF1)
Listing of entries alongside the reported pre-steady-state target cleavage rate.
quantity-measured: pre-steady-state target cleavage rate

sequence: UCCUGGAUGAGCAUUGCAUAGUAUUUAGUUA
limit-sign: =
endpoint-result: 0.0105
--
sequence: UCCUGGAUCAGCUUGCAUAGUAUUAAGUUA
limit-sign: =
endpoint-result: 0.00729
--
sequence: UCCUGGAACAGCUUGCUUAGUAUUUACUUA
limit-sign: =
endpoint-result: 0.00316
--
sequence: UCCUGCUACAGCAUGCAUAGUUUUUAGUUA
limit-sign: =
endpoint-result: 0.00396
--
sequence: UCCUGGAUGUCGUUGCAUAGGUAUUUAGUUA
limit-sign: =
endpoint-result: 0.00509
--
sequence: UCCUGGUACAGCUUAGCAUAGUAUUUAGUUA
limit-sign: =
endpoint-result: 0.0164
--
sequence: UCCUGGAUGUCCAAGCAUAGUAUUUAGUUA
limit-sign: =
endpoint-result: 0.00547
--
sequence: UCCUGCUCCAGCUUGCAUAGUAUUUAGUUA
limit-sign: =
endpoint-result: 0.00969
--
sequence: UCCUGGAUCAGCUUGCGUAGUAUUUAGUUA
limit-sign: =
endpoint-result: 0.0107
--
sequence: UCCUGGAUGAGCAUGGAUAGUAUUUAGUUA
limit-sign: =
endpoint-result: 0.0105
--
sequence: UCCUGGAUGUCGAUGCAUAGUAUUUACGUUA
limit-sign: =
endpoint-result: 0.00337
--
sequence: UCCUGGAUGUCCUUGGAUAGUAAUUAGUUA
limit-sign: =
endpoint-result: 0.00325
--
sequence: UCCUGCUACAGCUUGCAUAGUCAUUUAGUUA
limit-sign: =
endpoint-result: 0.00473
--
sequence: UCCUGGUAAGCUUGCAUAGUAUUUAGUUA
limit-sign: =
endpoint-result: 0.0137
--
sequence: UCCUGGAUCAGCUUAGCAUAGUAUUUAGUUA
limit-sign: =
endpoint-result: 0.00685
--
sequence: UCCUGGAUGUCGAAGCAUAGUAUUAUCUUA
limit-sign: <
endpoint-result: 0.0001
--
sequence: UCCUGGUACAGCUUGCAUAGUAUAAUGUUA
limit-sign: =
endpoint-result: 0.00565
--
sequence: UCCUGGAUCAGGUUGCAUUGUAUUUAGUUA
limit-sign: =
endpoint-result: 0.00671
--
sequence: UCCUGGAUGUCCUUACAUAGUAUUUAGUUA
limit-sign: =
endpoint-result: 0.00844
--
sequence: UCCUGGUAGCAGCUUGCAUAGUAUUUAGUUA
limit-sign: =
endpoint-result: 0.0162
--
sequence: UCCUGGAUGUGCUUGCAUUGUAUUAAGUUA
limit-sign: =
endpoint-result: 0.00354
--
sequence: UCCUGGAUGUCGAACGAUAGUAUUUAGAUA
limit-sign: <
endpoint-result: 0.0001
--
sequence: UCCUGGAUGUCGAUCCAUAGAAUUUAGUUA
limit-sign: <
endpoint-result: 0.0001
--
sequence: UCCUGGAUCAGCUUGCAUAGUAUUUAGUGUA
limit-sign: =
endpoint-result: 0.00832
--
sequence: UCCUGCUACAGCUUCGUUAGUAUUUAGUUA
limit-sign: =
endpoint-result: 0.00333
--
sequence: UCCUGGAUGUGCUUGGUUAGUAUUUAGUUA
limit-sign: =
endpoint-result: 0.01
--
sequence: UCCUGGAUGUCCUUGCAUAGUAUAUAGUUA
limit-sign: =
endpoint-result: 0.00505
--
sequence: UCCUGGAUGAGCUUGCAUAGUAUUCAGUUA
limit-sign: =
endpoint-result: 0.00552
--
sequence: UCCUGGAUCAGGUUGCAUAGUAUAUAGUUA
limit-sign: =
endpoint-result: 0.00574
--
sequence: UCCUGCUACAGCUUGCUUACUAUUUAGUUA
limit-sign: =
endpoint-result: 0.00371
--
sequence: UCCUGGUACAGCUAGCAUAGUAUUAAGUUA
limit-sign: =
endpoint-result: 0.00537
--
sequence: UCCUGGAUGAGCUUGCAUAGUAUGUAGUUA
limit-sign: =
endpoint-result: 0.0043
--
sequence: UCCUGGAUGUCGAUGCAUAGUGUUUAGUUA
limit-sign: =
endpoint-result: 0.0049
--
sequence: UCCUCGUACAGCUUGCAAAGUAUUUAGUUA
limit-sign: =
endpoint-result: 0.00953
--
sequence: UCCUGGUAUAGCUUGCAUAGUAUUUAGUUA
limit-sign: =
endpoint-result: 0.011
--
sequence: UCCUGGAUGAGCUUGCUAGUAUUUAGUUA
limit-sign: =
endpoint-result: 0.00421
--
sequence: UCCUGGAUGUCGUUGCAUAGUUAUUAGUUA
limit-sign: =
endpoint-result: 0.00364
--
sequence: UCCUGGAUCAGCUUGCAUAGUAUUUAGAUUA
limit-sign: =
endpoint-result: 0.00315
--
sequence: UCCUGGAACAGCUUCCAUUGUAUUUAGUUA
limit-sign: =
endpoint-result: 0.00471
--
sequence: UCCUGCUAGAGCUUGCAUAGUAUUUACUUA
limit-sign: =
endpoint-result: 0.00284
--
sequence: UCCUGGAUCAAGCUUGCAUAGUAUUUAGUUA
limit-sign: =
endpoint-result: 0.0103
--
sequence: UCCUGGUACAGCUUGCAUAGUAUUUAGUGUA
limit-sign: =
endpoint-result: 0.00896
--
sequence: UCCUGGUACACCUUGCAUUGUAUUUAGUUA
limit-sign: =
endpoint-result: 0.00903
--
sequence: UCCUGGAUGUCGAUGCAUACUAUUUAGAUA
limit-sign: <
endpoint-result: 0.0001
--
sequence: UCCUGGAACAGCUCUGCAUAGUAUUUAGUUA
limit-sign: =
endpoint-result: 0.00871
--
sequence: UCCUCCUACUGCAUGCAUAGUAUUUAGUUA
limit-sign: =
endpoint-result: 0.011
--
sequence: UCCUGCUACAGCUUGCAUAGUAUUUAGGUUA
limit-sign: =
endpoint-result: 0.00346
--
sequence: UCCUCCUACAGCUUGCAUGUAUUUAGUUA
limit-sign: =
endpoint-result: 0.00283
--
sequence: UCCUGCUACAGCUUUGCAUAGUAUUUAGUUA
limit-sign: =
endpoint-result: 0.00559
--
sequence: UCCUGGAUGUCGUUGCAAAGUAUAUAGUUA
limit-sign: =
endpoint-result: 0.00471
--
sequence: UCCUGGAACUGCUUGCAAAGUAUUUAGUUA
limit-sign: =
endpoint-result: 0.00518
--
sequence: UCCUGGAACAGCUAGCAUAGUAAUUAGUUA
limit-sign: =
endpoint-result: 0.00801
--
sequence: UCCUCCUACAGCUACCAUAGUAUUUAGUUA
limit-sign: =
endpoint-result: 0.00448
--
sequence: UCCUCCUACAGCUUGCAUAGUAUUUGAGUUA
limit-sign: =
endpoint-result: 0.00484
--
sequence: UCCUGGUUCAGCUUGCAUAGUAUUUAGUAA
limit-sign: =
endpoint-result: 0.00573

// provenance: the supplement of paper PMC10338343
